- test.summary: Drug concentration in plasma of C57BL6 mouse at 1 mg/kg, sc
- Format: ADME, organism-based
- particulars: in vivo
property.name: concentration (µM)
Return type: number; implicit unit µM.

For this compound ( CC(C)C[C@@H](N)C(=O)Nc1ccc(-c2cnco2)c(OC(F)F)c1 ), measured concentration is 1.2

###

- measurement.target: BMP-2-inducible protein kinase (Homo sapiens)
- Sequence (Q9NSY1 whole entry, the tested form may be a part): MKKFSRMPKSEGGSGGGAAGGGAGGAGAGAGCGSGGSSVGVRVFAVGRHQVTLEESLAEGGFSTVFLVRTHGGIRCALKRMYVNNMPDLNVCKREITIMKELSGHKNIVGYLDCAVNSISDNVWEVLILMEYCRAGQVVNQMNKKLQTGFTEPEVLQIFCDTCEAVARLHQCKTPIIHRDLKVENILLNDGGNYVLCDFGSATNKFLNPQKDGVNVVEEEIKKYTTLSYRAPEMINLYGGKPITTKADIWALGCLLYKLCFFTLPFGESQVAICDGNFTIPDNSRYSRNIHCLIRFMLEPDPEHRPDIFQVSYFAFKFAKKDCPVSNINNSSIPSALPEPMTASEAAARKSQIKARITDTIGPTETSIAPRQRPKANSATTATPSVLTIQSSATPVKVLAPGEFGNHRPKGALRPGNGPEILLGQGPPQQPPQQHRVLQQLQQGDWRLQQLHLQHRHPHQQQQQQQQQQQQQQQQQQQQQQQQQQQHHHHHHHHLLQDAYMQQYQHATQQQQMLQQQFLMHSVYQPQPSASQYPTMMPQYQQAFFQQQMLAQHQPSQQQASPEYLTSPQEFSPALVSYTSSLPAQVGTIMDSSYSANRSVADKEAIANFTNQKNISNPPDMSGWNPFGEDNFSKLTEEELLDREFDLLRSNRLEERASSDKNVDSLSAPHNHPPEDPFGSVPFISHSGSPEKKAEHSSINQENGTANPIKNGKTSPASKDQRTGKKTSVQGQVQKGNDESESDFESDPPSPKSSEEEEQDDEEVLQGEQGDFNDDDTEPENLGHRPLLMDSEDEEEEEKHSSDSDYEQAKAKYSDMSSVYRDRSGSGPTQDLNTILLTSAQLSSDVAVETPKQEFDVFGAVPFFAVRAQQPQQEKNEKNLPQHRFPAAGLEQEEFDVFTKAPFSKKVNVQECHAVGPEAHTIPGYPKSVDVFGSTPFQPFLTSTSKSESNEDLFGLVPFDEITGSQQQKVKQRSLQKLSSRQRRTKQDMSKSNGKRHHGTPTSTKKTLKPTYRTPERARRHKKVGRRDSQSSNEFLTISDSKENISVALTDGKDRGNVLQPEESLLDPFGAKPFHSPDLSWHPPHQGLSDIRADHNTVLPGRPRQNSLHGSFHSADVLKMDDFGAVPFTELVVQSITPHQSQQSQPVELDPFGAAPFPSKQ
- test.summary: Inhibition of wild-type human partial length BIKE (S34 to N329 residues) expressed in bacterial expression system by Kinomescan method
property.name: IC50

For this molecule ( CC(C)C[C@@H](N)C(=O)Nc1ccc(-c2cnco2)c(OC(F)F)c1 ), measured IC50 is 120 nM

###

- test.summary: Aqueous solubility of the compound at pH 1
- Format: physicochemical
property.name: solubility (µg/mL)
Return type: number; implicit unit µg/mL.

For this compound ( CC(C)C[C@@H](N)C(=O)Nc1ccc(-c2cnco2)c(OC(F)F)c1 ), measured solubility is 5850

###

- test.summary: Unbound brain-to-plasma concentration ratio in C57BL6 mouse at 30 mg/kg, sc
- Format: ADME, organism-based
- particulars: read-out: K(p,uu,brain)
property.name: Kp uu
No unit in the answer, only the number.

For this compound ( CC(C)C[C@@H](N)C(=O)Nc1ccc(-c2cnco2)c(OC(F)F)c1 ), measured Kp uu is 0.71

###

- test.summary: Drug concentration in brain of Sprague-Dawley rat model of chronic constriction injury-induced neuropathic pain at 3 mg/kg, sc
- Assay type: ADME, organism-based
- particulars: in vivo, read-out: Ct
property.name: concentration

For this molecule ( CC(C)C[C@@H](N)C(=O)Nc1ccc(-c2cnco2)c(OC(F)F)c1 ), measured concentration is 900 nM

###

- measurement.target: MAP kinase-interacting serine/threonine-protein kinase 1 (Homo sapiens)
- Sequence (Q9BUB5 whole entry): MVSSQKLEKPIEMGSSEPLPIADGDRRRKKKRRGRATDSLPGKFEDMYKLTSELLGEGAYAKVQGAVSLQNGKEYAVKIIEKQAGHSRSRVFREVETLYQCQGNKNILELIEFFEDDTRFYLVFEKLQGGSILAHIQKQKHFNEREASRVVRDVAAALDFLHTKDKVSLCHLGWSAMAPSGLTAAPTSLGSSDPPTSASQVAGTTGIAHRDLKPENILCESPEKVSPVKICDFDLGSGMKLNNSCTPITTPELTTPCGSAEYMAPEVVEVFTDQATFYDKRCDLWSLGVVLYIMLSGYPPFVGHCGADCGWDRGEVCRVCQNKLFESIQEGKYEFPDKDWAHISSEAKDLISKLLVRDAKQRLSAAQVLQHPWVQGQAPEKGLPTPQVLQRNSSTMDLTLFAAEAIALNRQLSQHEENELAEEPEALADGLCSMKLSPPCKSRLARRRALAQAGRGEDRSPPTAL
property.name: pIC50
Expect pIC50 as a plain number equal to -log10 of the molar concentration.

For this molecule ( CC(C)C[C@@H](N)C(=O)Nc1ccc(-c2cnco2)c(OC(F)F)c1 ), measured pIC50 is 6.29

###

remaining at 10 min, 0.5 µM reference
- test.summary: Metabolic stability in mouse liver microsomes assessed as parent compound remaining at 0.5 uM incubated for 10 mins in presence of NADPH by LC-MS/MS analysis
- Type: ADME, Microsome
- particulars: read-out: Stability

compound	property.name	assay.result
COc1cc(NC(=O)[C@H](N)[C@H](C)O)ccc1-c1cnco1	remaining at 10 min, 0.5 µM	91%

For this compound ( COc1cc(NC(=O)[C@H](N)c2ccccc2)ccc1-c1cnco1 ), measured remaining at 10 min, 0.5 µM is 75%

For this compound ( COc1cc(NC(=O)[C@H]2CCCCN2)ccc1-c1cnco1 ), measured remaining at 10 min, 0.5 µM is 1%

For this compound ( CC(C)C[C@@H](N)C(=O)Nc1ccc(-c2cnco2)c(OC(F)(F)F)c1 ), measured remaining at 10 min, 0.5 µM is 53%

For this compound ( COc1cc(NC(=O)CC2CCCC2)ccc1-c1cnco1 ), measured remaining at 10 min, 0.5 µM is 46%

For this compound ( COc1cc(NC(=O)[C@H](N)C2CCCCC2)ccc1-c1cnco1 ), measured remaining at 10 min, 0.5 µM is 67%

For this compound ( COc1cc(NC(=O)[C@H]2NCCC[C@H]2C(C)C)ccc1-c1cnco1 ), measured remaining at 10 min, 0.5 µM is 1%

For this compound ( CC(C)C[C@@H](N)C(=O)Nc1ccc(-c2cnco2)c(F)c1 ), measured remaining at 10 min, 0.5 µM is 30%

For this compound ( COc1cc(NC(=O)Cc2ccccc2)ccc1-c1cnco1 ), measured remaining at 10 min, 0.5 µM is 70%

For this compound ( COc1cc(NC(=O)[C@H](N)CC(C)C)ccc1-n1ccnc1 ), measured remaining at 10 min, 0.5 µM is 87%

For this compound ( COc1cc(NC(=O)[C@H](N)CC2CCCCC2)ccc1-c1cnco1 ), measured remaining at 10 min, 0.5 µM is 78%

For this compound ( COc1cc(NC(=O)[C@H](N)CC(C)C)ccc1-c1cnco1 ), measured remaining at 10 min, 0.5 µM is 64%
